Exercise: for every item that follows, state its recorded IC50.
ASSAY_TARGET: FLAG-tagged human Ang2 (human) (UniProt O15123)
Sequence (O15123 19-496): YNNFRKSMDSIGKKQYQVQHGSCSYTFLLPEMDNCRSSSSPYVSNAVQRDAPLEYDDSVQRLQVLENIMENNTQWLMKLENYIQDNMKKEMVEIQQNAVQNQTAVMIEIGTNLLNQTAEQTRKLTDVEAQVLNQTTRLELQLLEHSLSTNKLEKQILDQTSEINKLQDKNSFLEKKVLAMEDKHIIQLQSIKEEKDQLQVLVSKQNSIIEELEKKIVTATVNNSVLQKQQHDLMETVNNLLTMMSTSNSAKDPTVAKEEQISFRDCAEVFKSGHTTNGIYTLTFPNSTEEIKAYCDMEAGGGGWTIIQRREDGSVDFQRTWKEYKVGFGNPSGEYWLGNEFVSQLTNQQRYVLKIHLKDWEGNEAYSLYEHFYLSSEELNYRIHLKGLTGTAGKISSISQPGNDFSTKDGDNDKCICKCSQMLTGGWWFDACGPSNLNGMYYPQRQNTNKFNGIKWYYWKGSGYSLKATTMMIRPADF
EXPERIMENT: competition ELISA: FLAG-hAng2 binding to coated hTie2-Fc
Write down the numeric answer in nM and omit the unit.

Reported IC50, binder VHH 00902 (VHH, not shown: small tags and cut ends) VHH: EVQLVESGGGLVQAGGSLRLSCAASGFTLDDYAIGWFRQAPGKEREGVSAIRDSGGSTYYADSVKGRFTISSDNDKNTVYLQMNSLKPEDTAVYYCAAVPAGRLRFGEQWYPLYEYDAWGQGTLVTVSS : ____
1.3

Consider the binder shown here: VHH 00046 (VHH, not shown: small tags and cut ends) VHH: EVQLVESGGGLVQPGGSLRLSCAASGFALDYYAIGWFRQAPGKEREGVSCISSSGGITYYVDSVKGRFTISRDNSKNTVYLQMNSLRPEDTAVYYCATDSGGYIDYDCMGLGYDYWGQGTLVTVSS What is its recorded IC50?
0.095

// query IC50 value for entry VHH 00913 (VHH, not shown: small tags and cut ends) VHH: EVQLVESGGGLVQPGGSLRLSCAASGLTIDDYAIGWFRQAPGKEREGVSSIRDNGGSTYYADSVKGRFTISSDNSKNTVYLQMNSLRPEDTAVYYCAAVPAGRLRFGEQWYPIYEYDAWGQGTLVTVSS
0.042

IC50 for VHH 37F02 (VHH, not shown: small tags and cut ends) VHH: EVQLVESGGGLVQPGGSLRLSCAASGFALDYYAIGWFRQAPGKEREGVSCISSSDGITYYVDSVKGRFTISRDNAKNTVYLQMNSLKPEDTAVYYCATDSGGYIDYDCMGLGYDYWGQGTQVTVSS ?
0.077

# IC50 lookup, item VHH 00920 (VHH, not shown: small tags and cut ends) VHH: EVQLVESGGGLVQPGGSLRLSCAASGFALDYYAIGWFRQAPGKEREGVSCISSSGGITYYADSVKGRFTISRDNSKNTVYLQMNSLRPEDTAVYYCATDSGGYIDYDCMGLGYDYWGQGTLVTVSS
0.13

Which IC50 is listed for VHH 00926 (VHH, not shown: small tags and cut ends) VHH: EVQLVESGGGLVQPGGSLRLSCAASGFALDYYAIGWFRQAPGKEREGVSCISSSGGITYYADSVKGRFTISRDNSKNTVYLQMNSLRPEDTAVYYCATDSGGYIDYDCQGLGYDYWGQGTLVTVSS ?
0.25

Report IC50 for VHH 00925 (VHH, not shown: small tags and cut ends) VHH: DVQLVESGGGLVQPGGSLRLSCAASGFTFDDYALGWFRQAPGKEREGVSCIRCSGGSTYYADSVKGRFTISSDNSKNTVYLQMNSLRPEDTAVYYCAASIVPRSKLEPYEYDAWGQGTLVTVSS please.
22.1

Requested read-out: IC50. Entry: VHH 00932 (VHH, not shown: small tags and cut ends) VHH: EVQLVESGGGLVQPGGSLRLSCAVSGITLDDYAIGWFRQAPGKEREGVSSIRDNGGSTYYADSVKGRFTISSDNSKNTVYLQMNSLRPEDTAVYYCAAVPAGRLRYGEQWYPIYEYDAWGQGTLVTVSS
0.049
